Tested on: HEK-293T
Test: Multiplex assay against HEK293T
Assay type: toxicity, cell-based
Conditions: human, 24 h, 1 µM, compound concentration 1 uM, replicate 2
quantity-kind: Population Hoechst High Intensity Objects (%)

| molecule | value-measured |
| --- | --- |
| C[C@H](NC(=O)CNC(=O)c1cccc(Cl)c1)c1ccccc1 | 2 |
| CC(C)(C)c1ccc(CSc2cnn(C(C)(C)C)c(=O)c2Cl)cc1 | 8 |
| COCCn1c(C)c(C)s/c1=N\C(=O)C1C(C)(C)C1(C)C | 7 |
| Cc1cc(-c2ccc3c(c2)CC[C@H]3N2CC3(CCN(C(=O)Cc4cn5cc(C)sc5n4)CC3)C2)ncn1 | 7 |
| COC(c1ccccc1)(c1ccccc1)[C@H](Oc1nc(C)cc(C)n1)C(=O)O | 7 |
| CC(C)C[C@H](CO)Nc1nc(S[C@@H](C)c2ccccc2)nc2nc(N)sc12 | 5 |
| CCC(=O)OCC(=O)[C@@]1(OC(=O)CC)[C@@H](C)C[C@H]2[C@@H]3CCC4=CC(=O)C=C[C@]4(C)[C@@]3(Cl)[C@@H](O)C[C@@]21C [BECLOMETHASONE DIPROPIONATE] | 5 |
| CCCCCCNC(=O)Nc1ccc(S(=O)(=O)Nc2ccc(CCNC[C@H](O)COc3ccc(O)cc3)cc2)cc1 | 4 |

###

Tested on: Fibroblast
Test: Multiplex assay against human fibroblast
Format: toxicity, cell-based
Conditions: 12 h, 1 µM, compound concentration 1 uM, replicate 1
Let's look at some compounds and their measured Population Mitochondria Different-Phenotype (%).
quantity-kind: Population Mitochondria Different-Phenotype (%)

| compound | value-measured |
| --- | --- |
| COc1ccc2c(c1OCc1ccccc1)C[C@@H](C(=O)O)N(C(=O)C(c1ccccc1)c1ccccc1)C2 [OLODANRIGAN] | 2% |
| Cc1cc(NC(=O)NCCN2CCC(O)(Cc3ccccc3)CC2)c2ccccc2n1 [PALOSURAN] | 1% |
| CN1CCN(c2ccc(Nc3c4ccccc4nc4ccccc34)cc2)CC1.Cl.Cl.O | 3% |
| Cc1cc(-c2ccc3c(c2)CC[C@H]3N2CC3(CCN(C(=O)Cc4cn5cc(C)sc5n4)CC3)C2)ncn1 [PF-5190457] | 5% |
| CN(C)C/C=C/C(=O)Nc1ccc(C(=O)N2CCCC(Nc3ncc(Cl)c(-c4c[nH]c5ccccc45)n3)C2)cc1 (stereo not drawn) | 11% |
| Cc1sc2c(c1C)C(c1ccc(Cl)cc1)=N[C@H](CC(=O)OC(C)(C)C)c1nnc(C)n1-2 | 5% |
| Cc1c(Cc2ccc3ccccc3n2)c2cc(F)ccc2n1CC(=O)O [TIMAPIPRANT] | 7% |
| COc1ccc2[nH]c(I)c(CCNC(C)=O)c2c1 [IODOMELATONIN] | 4% |

###

System: U2OS
Experiment: Multiplex assay against U2OS
Format: toxicity, cell-based
Conditions: human, 48 h, 10 µM, compound concentration 10 uM, replicate 1
Listed here: items and their measured Population Membrane Permeable-Phenotype (%).
quantity-kind: Population Membrane Permeable-Phenotype (%)

| compound | value-measured |
| --- | --- |
| CN1C[C@H](C(=O)N[C@]2(C)O[C@@]3(O)[C@@H]4CCCN4C(=O)[C@H](Cc4ccccc4)N3C2=O)C[C@@H]2c3cccc4[nH]cc(c34)C[C@H]21.CS(=O)(=O)O [DIHYDROERGOTAMINE MESYLATE] | 7% |
| Cc1cc(NC(=O)NCCN2CCC(O)(Cc3ccccc3)CC2)c2ccccc2n1 | 5% |
| COC(c1ccccc1)(c1ccccc1)[C@H](Oc1nc(C)cc(C)n1)C(=O)O | 4% |
| CC(C)(C)c1ccc(CSc2cnn(C(C)(C)C)c(=O)c2Cl)cc1 | 9% |
| CC(C)(O)C(=O)N1CCN(c2ccc(C(F)(F)F)c(C3=C(c4c[nH]c5ccccc45)C(=O)NC3=O)c2)CC1 | 27% |
| Cc1cc(O)c(-c2ccc([C@@H](C)CN(C)C)cc2)c2c1[nH]c(=O)c1sccc12 | 25% |
| Cc1ccc(OCC(O)C(C)NC(C)C)c2c1CCC2.Cl (stereo not drawn) | 12% |
| Cc1c(Cc2ccc3ccccc3n2)c2cc(F)ccc2n1CC(=O)O | 3% |

###

System: HEK-293T
Assay: Multiplex assay against HEK293T
Format: toxicity, cell-based
Details: human, 24 h, 10 µM, compound concentration 10 uM, replicate 1
Below, each entry is listed with its recorded Total Cell Count.

| compound | target | Total Cell Count |
| --- | --- | --- |
| COc1cc(C(=O)N2CC[C@@H](O)[C@@H](N)C2)cc2nc(-c3cc4ccccc4n3CC3CC3)n(C)c12.Cl | HEK-293T | 312 |
| COC(c1ccccc1)(c1ccccc1)[C@H](Oc1nc(C)cc(C)n1)C(=O)O [AMBRISENTAN] | HEK-293T | 441 |
| Cc1cc(=O)n(C)c2cc(N3C(=O)CC[C@H](NS(=O)(=O)CC(C)C)[C@H]3c3ccc(Cl)cc3)ccc12 | HEK-293T | 419 |
| CCn1c(-c2nc3cc(C(=O)N4CCCC(N)C4)ccc3n2C)cc2ccccc21.Cl (stereo not drawn) | HEK-293T | 449 |
| N[C@](CC1c2ccccc2Oc2ccccc21)(C(=O)O)[C@H]1C[C@@H]1C(=O)O | HEK-293T | 510 |
| Nc1nc(CC(=O)Nc2ccc(CCNC[C@H](O)c3ccccc3)cc2)cs1 [MIRABEGRON] | HEK-293T | 552 |
| Nc1nc(-c2ccco2)c2cnn(Cc3ccccc3F)c2n1 | HEK-293T | 334 |
| CN1CCN(c2ccc(Nc3c4ccccc4nc4ccccc34)cc2)CC1.Cl.Cl.O | HEK-293T | 247 |
| COCCCN1CCC(NC(=O)c2cc(Cl)c(N)c3c2OCC3)CC1 [PRUCALOPRIDE] | HEK-293T | 531 |
| CN1CCC(C(=O)c2cccc(NC(=O)c3c(F)cc(F)cc3F)n2)CC1 | HEK-293T | 583 |
| C[C@@H]1CC(=O)Nc2cccc(-c3ccc4c(c3)c(-c3cnn(C)c3)nn4C)c2N1 | HEK-293T | 472 |
| O=c1ccc2ccc(OCCCCN3CCN(c4cccc5sccc45)CC3)cc2[nH]1 [BREXPIPRAZOLE] | HEK-293T | 284 |
| Cc1nn(C)c2nc(NNC(=O)Nc3cc(Cl)nc(Cl)c3)cc(C(C)C)c12 | HEK-293T | 321 |
| Cc1ccc(OCC(O)C(C)NC(C)C)c2c1CCC2.Cl (stereo not drawn) | HEK-293T | 334 |
| O=C(O)CCC/C=C\CC1C(O)CC(O)C1/C=C/C(O)COc1cccc(Cl)c1 (stereo not drawn) [CLOPROSTENOL] | HEK-293T | 490 |
| O=C(Nc1cc(-c2ccccc2)nn1-c1ccccc1F)c1ccc([N+](=O)[O-])cc1 | HEK-293T | 434 |
| CN(C)C/C=C/C(=O)Nc1ccc(C(=O)N2CCCC(Nc3ncc(Cl)c(-c4c[nH]c5ccccc45)n3)C2)cc1 (stereo not drawn) | HEK-293T | 314 |
| CN1C[C@H](C(=O)N[C@]2(C)O[C@@]3(O)[C@@H]4CCCN4C(=O)[C@H](Cc4ccccc4)N3C2=O)C[C@@H]2c3cccc4[nH]cc(c34)C[C@H]21.CS(=O)(=O)O [DIHYDROERGOTAMINE MESYLATE] | HEK-293T | 480 |

###

System: Fibroblast
Test: Multiplex assay against human fibroblast
Assay type: toxicity, cell-based
Conditions: 24 h, 10 µM, compound concentration 10 uM, replicate 1
Recorded measurements of Population Mitotic Cells (%), one per entry

| molecule | unit-info | Population Mitotic Cells (%) |
| --- | --- | --- |
| CCc1nn2c(C)cc(C)nc2c1Cc1ccc(-c2nnc(C3CCNCC3)o2)cc1 | % | 46 |
| N[C@](CC1c2ccccc2Oc2ccccc21)(C(=O)O)[C@H]1C[C@@H]1C(=O)O | % | 42 |
| Cc1c(Cc2ccc3ccccc3n2)c2cc(F)ccc2n1CC(=O)O | % | 33 |
| CC(C)(O)C(=O)N1CCN(c2ccc(C(F)(F)F)c(C3=C(c4c[nH]c5ccccc45)C(=O)NC3=O)c2)CC1 | % | 73 |
| COc1c(Nc2ccc(S(C)(=O)=O)nc2C)ncnc1OC1CCN(C(=O)OC(C)C)CC1 | % | 47 |
| CN(C)C(=O)Cn1cc(-c2ccc(-c3nnc4ccccn34)cc2)cn1 | % | 34 |
| Cc1cc(O)c(-c2ccc([C@@H](C)CN(C)C)cc2)c2c1[nH]c(=O)c1sccc12 | % | 33 |
| Cl.Cl.OCCOCCN1CCN(C(c2ccccc2)c2ccc(Cl)cc2)CC1 (centres undefined) [HYDROXYZINE HYDROCHLORIDE] | % | 48 |
| COc1ccc2c(c1OCc1ccccc1)C[C@@H](C(=O)O)N(C(=O)C(c1ccccc1)c1ccccc1)C2 | % | 46 |

All figures here come from ChEMBL document CHEMBL5058577.
